Consider the following compounds; for each one, report its Diameter of the zone of inhibition, C. albicans.
# Test system: Candida albicans SRI 523
# Experimental Protocol: Agar disc diffusion assay
# Type: cell-based
# Settings: 240 ug/disc, about 24 hr at 37° C.
All answers are understood in mm, so give the number only.

Field Diameter of the zone of inhibition, C. albicans (system: Candida albicans SRI 523) for entry Cl.Cl.O=C(CCN1CCN(Cc2ccccc2)CC1)c1ccc([N+](=O)[O-])cc1 [Example 5] = 17.6

The compound Cl.Cl.O=C(CCN1CCN(Cc2ccccc2)CC1)c1csc([N+](=O)[O-])c1 [Example 80] , tested on Candida albicans SRI 523, showed Diameter of the zone of inhibition, C. albicans of 14.5

Observed Diameter of the zone of inhibition, C. albicans, Candida albicans SRI 523, Cl.O=C(CCN1CCN(C(=O)c2ccccc2C(F)(F)F)CC1)c1ccccc1F [Example 43] : 22.5

Form: item Cl.Cl.O=C(CCN1CCN(Cc2ccccc2)CC1)c1ccc(F)c2ccccc12 [Example 21] ; test system Candida albicans SRI 523; Diameter of the zone of inhibition, C. albicans: 26.6

Reported Candida albicans SRI 523 Diameter of the zone of inhibition, C. albicans for item Cl.Cl.O=C(CCN1CCN(Cc2ccccc2)CC1)c1ccc(F)c(Br)c1 [Example 25] was 26.0

# Diameter of the zone of inhibition, C. albicans measured on Candida albicans SRI 523 for item Cl.Cl.O=C(CCN1CCN(C(c2ccccc2)c2ccc(Cl)cc2)CC1)c1ccc(Br)s1 (stereo not drawn) [Example 78] = 15.2
